Measured IC50, listed per entry.
Target: UniProtKB O08914
Sequence (O08914 1-579): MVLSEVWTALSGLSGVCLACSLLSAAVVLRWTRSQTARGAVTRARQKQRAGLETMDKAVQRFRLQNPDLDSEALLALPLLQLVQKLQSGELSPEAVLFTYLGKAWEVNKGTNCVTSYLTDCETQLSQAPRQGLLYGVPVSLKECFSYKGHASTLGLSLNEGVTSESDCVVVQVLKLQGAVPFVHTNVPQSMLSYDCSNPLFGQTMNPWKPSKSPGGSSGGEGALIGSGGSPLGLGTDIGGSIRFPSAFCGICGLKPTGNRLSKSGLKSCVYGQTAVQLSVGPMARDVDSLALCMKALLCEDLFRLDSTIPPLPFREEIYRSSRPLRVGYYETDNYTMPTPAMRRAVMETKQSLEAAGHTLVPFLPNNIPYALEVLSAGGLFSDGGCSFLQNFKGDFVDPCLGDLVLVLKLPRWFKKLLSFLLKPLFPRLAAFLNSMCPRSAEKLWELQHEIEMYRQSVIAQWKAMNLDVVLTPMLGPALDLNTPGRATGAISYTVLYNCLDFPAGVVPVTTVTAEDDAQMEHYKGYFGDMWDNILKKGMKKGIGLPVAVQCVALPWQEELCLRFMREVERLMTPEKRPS
quantityKind: IC50

>  <compound>
CCCCNC(=O)Oc1cccc(-n2ccc(C(N)=O)c2)c1

>  <quantityKind>
IC50

>  <measured>
100 to 500 nM

$$$$
>  <compound>
Cc1cc(C(N)=O)c(-c2cccc(OC(=O)NC3CCCCC3)c2)o1

>  <quantityKind>
IC50

>  <measured>
100 to 500 nM

$$$$
>  <compound>
C#CCCCCCCCCCNC(=O)Oc1cccc(-n2ccc(C(N)=O)c2)c1

>  <quantityKind>
IC50

>  <measured>
< 10 nM

$$$$
>  <compound>
Cc1cc(C(N)=O)c(-c2cccc(OC(=O)NCCCCCCc3ccccc3)c2)s1

>  <quantityKind>
IC50

>  <measured>
< 10 nM

$$$$
>  <compound>
Cc1oc(-c2cccc(OC(=O)NC3CCCCC3)c2)cc1C(N)=O

>  <quantityKind>
IC50

>  <measured>
100 to 500 nM

$$$$
>  <compound>
C#CCCCCCCCCCOC(=O)c1ccn(-c2cccc(OC(=O)NCCCC)c2)c1

>  <quantityKind>
IC50

>  <measured>
100 to 500 nM

$$$$
>  <compound>
Cc1oc(-c2cccc(OC(=O)NCCCCCCc3ccccc3)c2)cc1C(N)=O

>  <quantityKind>
IC50

>  <measured>
10 to 100 nM

$$$$
>  <compound>
NC(=O)c1ccn(-c2cccc(OC(=O)NC3CCCCC3)c2)c1

>  <quantityKind>
IC50

>  <measured>
100 to 500 nM

$$$$
>  <compound>
Cc1cc(C(N)=O)c(-c2cccc(OC(=O)NC3CCCCC3)c2)s1

>  <quantityKind>
IC50

>  <measured>
100 to 500 nM

$$$$
>  <compound>
NC(=O)c1ccn(-c2cccc(OC(=O)NCCCCCCc3ccccc3)c2)c1

>  <quantityKind>
IC50

>  <measured>
< 10 nM

$$$$
>  <compound>
Cc1cc(C(N)=O)c(-c2cccc(OC(=O)NCCCCCCc3ccccc3)c2)o1

>  <quantityKind>
IC50

>  <measured>
< 10 nM

$$$$
>  <compound>
CCCCNC(=O)Oc1cccc(-c2oc(C)cc2C(=O)OCC)c1

>  <quantityKind>
IC50

>  <measured>
100 to 500 nM

$$$$
>  <compound>
CCCCNC(=O)Oc1cccc(-c2oc(C)cc2C(N)=O)c1

>  <quantityKind>
IC50

>  <measured>
500 to 5000 nM

$$$$
>  <compound>
CCCCNC(=O)Oc1cccc(-n2ccc(C(=O)OCCCCCCc3ccccc3)c2)c1

>  <quantityKind>
IC50

>  <measured>
100 to 500 nM

$$$$
